Origin of measurements: the supplement of paper PMC10567573

B1: KRT13 (parent)
chain: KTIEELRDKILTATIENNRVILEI

- Variants of: B1
- assay-details: protein stability index of a GFP-peptide fusion (GPS, HEK-293T) (PSI 1-6); higher = more stable;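 also: lentivirally expressed fusions sorted by FACS into six bins by GFP to DsRed ratio, PSI derived from sequencing read proportions per bin multiplied by bin number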
- measurement-conditions: c terminus: a fixed tail appended
property: protein stability index
// keep it numeric: no unit symbol after the value

A selection of reference data follows.
# chain, protein stability index
data = [
    ("KTIEELRDKILTATIENNRVILHI", 2.05),
    ("KTIEELRDKILTATIENNWVILEI", 2.74),
    ("KTIEELRDKILTATIENNSVILEI", 2.23),
]

Note protein stability index for the variant shown: KTAEELRDKILTATIENNRVILEI
1.24

Note protein stability index for the variant shown: KTIEELRDKILNATIENNRVILEI
2.83

Note protein stability index for the variant shown: KTIEELRDKILTATIENNRVHLEI
2.49

Note protein stability index for the variant shown: KTIEELRDKRLTATIENNRVILEI
2.31

Note protein stability index for the variant shown: KTIEELRDEILTATIENNRVILEI
2.7
